The measured values listed here are drawn from the supplement of paper PMC9732359.

experiment: protein stability index of a GFP-peptide fusion (yeast GPS) (PSI 1-4); higher = more stable; sorted into four equal gates, so the index is relative within each strain; conditions: ubr1∆
Field: protein stability index. Provide a value for each of the sequences that follow.
Answers are plain numbers.

residue_string: YGLIRGLKFASFIFQYY [PRP8]
reported: 2.36

residue_string: IPGEEVEETEVPTVPPS [MED4]
reported: 2.62

residue_string: VAGAIRAGIIIAKLSVI [RPS2]
reported: 2.65

residue_string: IHKRYIDLEAPVQIVKR [RPS20]
reported: 2.96

residue_string: SSLSAIIVFGYPESISN [YDL088C/ASM4]
reported: 2.01

Quick one: give me protein stability index for each item below, same order please.
1. TKSKNKTLIGLQGIVIW [POP4]
2. EPDLESQISKAEMEADS [SMC4]

OUTPUT:
2.73
2.55

----------
test: protein stability index of a GFP-peptide fusion (yeast GPS) (PSI 1-4); higher = more stable; sorted into four equal gates, so the index is relative within each strain; conditions: ubr1∆
We use 3 as the dividing line for protein stability index: on or above the line is class 1, below is class 0.

These solved cases illustrate the format of a correct answer.
residue_string: AQQVPPYGVYHPPFIKY [SIN4]
assigned_class: class 0
//
residue_string: ENYDDTELRQLFQENDD [DSN1]
assigned_class: class 0
//
residue_string: ELKIRSKTENVRRLEAQ [RPT6]
assigned_class: class 0
//
residue_string: PGTIVLYAERVQDRGLS [RPS3]
assigned_class: class 1
//
residue_string: RTVAGFSNVELPQCIIP [ARP7]
assigned_class: class 0
//
residue_string: KIQFHIHFADVAHITTK [RGR1]
assigned_class: class 0
//
residue_string: EGFAADDEPTTPAELVG [FAS1]
assigned_class: class 1
//
residue_string: DDDNSNVDYYNVAHRIK [SNF2]
assigned_class: class 1

INPUT: Decide: protein stability index of EEEYDETHETNISNAKL [YAR002W/NUP60] >= 3?
OUTPUT: class 1

INPUT: Decide: protein stability index of PFKVFLDIGLQRTTTGA [RPL5] >= 3?
OUTPUT: class 0

INPUT: Decide: protein stability index of ISLYFNDILDELLCGMA [ECM29] >= 3?
OUTPUT: class 0

INPUT: Decide: protein stability index of AGEFGLKNKREIYRISF [RPS9B] >= 3?
OUTPUT: class 0

INPUT: Decide: protein stability index of TTIQTEKVRPTPGEVAS [MCD1] >= 3?
OUTPUT: class 0

INPUT: Decide: protein stability index of EIQEELERFNKRADISK [SMC1] >= 3?
OUTPUT: class 1

INPUT: Decide: protein stability index of VVNQPTGKIVDVVGTLS [FAS1] >= 3?
OUTPUT: class 1

INPUT: Decide: protein stability index of LKNMLYVLSTAVEFESV [BRR2] >= 3?
OUTPUT: class 0

INPUT: Decide: protein stability index of CSRIIKIDKPIRTQVNT [RGR1] >= 3?
OUTPUT: class 0

----------
test: protein stability index of a GFP-peptide fusion (yeast GPS) (PSI 1-4); higher = more stable; sorted into four equal gates, so the index is relative within each strain; details: ubr1∆
attribute_measured: protein stability index
One number for each entry.

Quick one: give me protein stability index for each item below, same order please.
1. FCPGEIVGKSNVLVTMP [YMR129W/POM152]
2. MARRPARCYRYQKNKPY [RPL10]

OUTPUT:
2.51
2.4

Quick one: give me protein stability index for each item below, same order please.
1. RIIEKSVRRSGALDVEG [RRP45]
2. LKTRDWIVVLPWFWLLP [POP1]
3. PIFDYIHIDALELAGMD [SIR3]
4. YEAYPNTSLPPSILEDS [FAS1]
5. DFDLLNKTLTFETETEV [FAS1]

OUTPUT:
1. 2.53
2. 2.02
3. 2.17
4. 2.4
5. 3.3

Quick one: give me protein stability index for each item below, same order please.
1. ASSTPIPVLGKPTDATG [YOR098C/NUP1]
2. CEAAVEISKKDFVRKGG [SIR3]
3. QRDRHTLAYDRGHRIRR [PRP8]
4. APTGSGKTNIALLTVLK [BRR2]
5. QRKTNGASNGDDSNGGN [BRN1]
6. KTDLELLVERLKEDDSS [RPN1]
7. REHSLQLFRTNKVQIMI [PRP28]
8. DTAPKPNIVEIDLDNDE [DLS1]

OUTPUT:
1: 2.42; 2: 3.25; 3: 2.87; 4: 2.88; 5: 3.64; 6: 3.18; 7: 2.07; 8: 3.27

----------
assay: protein stability index of a GFP-peptide fusion (yeast GPS) (PSI 1-4); higher = more stable; sorted into four equal gates, so the index is relative within each strain; conditions: pdr5∆
We use 3 as the dividing line for protein stability index: on or above the line is MET, below is NOT MET.

residue_string: ILKLLNGFMESAIVNED [SOH1]
assigned_class: MET
//
residue_string: QRDRHTLAYDRGHRIRR [PRP8]
assigned_class: MET
//
residue_string: LFLNNFVSRIPIMFQDF [IRR1]
assigned_class: NOT MET
//
residue_string: LASSFVNGFLNLGYCND [RPN1]
assigned_class: MET
//
residue_string: CVVSTDSTNLSDDAAQF [ECM29]
assigned_class: NOT MET

Now for a further sequence.
INPUT: Decide: protein stability index of NFEYDLSEYDAIQKKDN [YOR098C/NUP1] >= 3?
OUTPUT: MET

----------
assay: protein stability index of a GFP-peptide fusion (yeast GPS) (PSI 1-4); higher = more stable; sorted into four equal gates, so the index is relative within each strain; details: doa10∆
We use 3 as the dividing line for protein stability index: on or above the line is true, below is false.

residue_string: KDRIIDERTKEFEKKLQ [YIL149C/MLP2]
assigned_class: true

INPUT: Decide: protein stability index of IEPELFNGYNPEKKEMI [FAS2] >= 3?
OUTPUT: true

----------
assay: protein stability index of a GFP-peptide fusion (yeast GPS) (PSI 1-4); higher = more stable; sorted into four equal gates, so the index is relative within each strain; conditions: doa10∆
attribute_measured: protein stability index
Give bare numbers.

residue_string: SSYDLLFNESFIMASVG [SRP72]
attribute_measured: protein stability index
reported: 3.18

residue_string: ENDLSFALMRYYDRKEE [RRI2]
attribute_measured: protein stability index
reported: 3.12

residue_string: LLLLSLFKKITNVNPSK [YML103C/NUP188]
attribute_measured: protein stability index
reported: 1.89

residue_string: MATIASEYSSEASNTPI [PRE7]
attribute_measured: protein stability index
reported: 2.53

Quick one: give me protein stability index for each item below, same order please.
1. CGAGVFLANHKDRLYCG [RPS31]
2. PEEEAAIRRENEWAEDR [SKP1]

OUTPUT:
1: 2.19; 2: 3.09

INPUT: State the recorded protein stability index for this entry: TFLSEWGMEPLEDYVPH [RPB2]
OUTPUT: 3.17

----------
assay: protein stability index of a GFP-peptide fusion (yeast GPS) (PSI 1-4); higher = more stable; sorted into four equal gates, so the index is relative within each strain; conditions: ubr1∆
attribute_measured: protein stability index
Numbers only.

Solved cases (2 shown):
residue_string: IEKARVEAQSHRLTLED [PRE6]
reported: 3.26

residue_string: SDKQRRLLAKDAMIAQR [DIS3]
reported: 2.46

Quick one: give me protein stability index for each item below, same order please.
1. EGLCIVAGSKCWAVRAD [RRP45]
2. SYHLWPSFTDEQWITIE [PRP8]
3. FDSLRNFIVHSPMLKRI [GRR1]
4. NKSTSSEAEYSKDIETL [YIL149C/MLP2]
5. YTYSSTLSHLRRTNTPI [RPB2]

OUTPUT:
1. 2.57
2. 2.57
3. 2.64
4. 3.26
5. 2.17

Quick one: give me protein stability index for each item below, same order please.
1. FRYITTWENEFLDSQRV [PRP8]
2. IRFVCLSNCLANARDFG [BRR2]
3. METRINILLRERDSYKL [YIL149C/MLP2]
4. ELDEHTTQIDLFRIFSM [BRR2]
5. QQAQSFVGKKNTIGSVH [SSN3]
6. TSLFHKFILSGFIFTSM [RRI2]
7. FDLVRNIVKQNEGIDLD [SMC2]

OUTPUT:
3.03
2.24
2.3
1.22
2.98
1.52
3.45

----------
Field: protein stability index. Provide a value for each of the sequences that follow.
assay: protein stability index of a GFP-peptide fusion (yeast GPS) (PSI 1-4); higher = more stable; sorted into four equal gates, so the index is relative within each strain; conditions: ubr1∆

Solved cases (10 shown):
residue_string: APIQLKIDLLSGQFYFR [RGR1]
reported: 3.02
//
residue_string: LNTKSIQIDEETENSES [MCD1]
reported: 2.92
//
residue_string: ALAFCEIGITQQRIVSA [RRP4]
reported: 2.25
//
residue_string: MATNRADTLDPALLRPG [RPT3]
reported: 2.79
//
residue_string: EKIKSKKINRRNETSVD [YCG1]
reported: 3.33
//
residue_string: MAATATDKIGRSVPAPG [FAS2]
reported: 3.01
//
residue_string: AVINIRDDGKRELLVEG [RPO31]
reported: 3.14
//
residue_string: KNDKLIKIEDFVDDMLR [SNF5]
reported: 2.68
//
residue_string: KERTKSLEHELKRSTEL [YIL149C/MLP2]
reported: 3.12
//
residue_string: VVETITSLLNKVLKSGS [RRP42]
reported: 2.45

Quick one: give me protein stability index for each item below, same order please.
1. SRENNSEYMVFGKLAFP [YJL039C/NUP192]
2. VNGSITDQLIQNIETRQ [NUT1]
3. QWLIMLGICTHLGCVPI [RIP1]
4. QFYVKRWKRFTIGAIFL [CDC53]
5. CDSYLDADKELSFEINV [BRR2]
6. VGKYDKAIELLEKALQG [SRP72]

OUTPUT:
1: 2.79; 2: 3.15; 3: 1.46; 4: 2.04; 5: 2.7; 6: 1.18

Quick one: give me protein stability index for each item below, same order please.
1. SLFHTAVSVANGFMHAG [RPN2]
2. VKHSPGAIKPFTPKLIY [ECM29]
3. FKGTDFVHSVKKFLRVR [SRB4]
4. KRRKLDLNNAVQKRDEV [SMC4]
5. NSIKNVPPILIILPLDN [SSN2]
6. CGAWEPAITIEKLKQFS [SIR3]
7. LLFNNDFPLLKVLAAHT [RRP40]
8. VTLDFGNIFADLLPNSF [SMC2]

OUTPUT:
1. 1.57
2. 2.93
3. 2.87
4. 2.96
5. 1.82
6. 1.54
7. 1.09
8. 2.91

Quick one: give me protein stability index for each item below, same order please.
1. QGLNILEWLENPSNTPD [FAS1]
2. KKEEELGVKSRLLEKSE [SNF2]

OUTPUT:
3.14
3.04
